Values compiled from ChEMBL document CHEMBL1146806.

experiment: Oral bioavailability in dog; type: ADME, organism-based, Canis lupus familiaris; conditions: in vivo
assay.endpoint: bioavailability

Answered examples (8):
Briefly, bioavailability measured for O=C(Cc1ccc2[nH]c(-c3ccc(Cl)s3)nc2c1)NCc1ccc(N2CCOCC2=O)cc1 : < 20%

Documented bioavailability of O=C(Cc1ccc2[nH]c(-c3ccc(Br)s3)nc2c1)NCC1CCN(c2ccncc2)CC1 : < 20%

bioavailability reading for O=C(CCc1ccc2[nH]c(-c3ccc(Cl)s3)nc2c1)Nc1ccc(-n2ccccc2=O)c(F)c1 : < 20%

The recorded bioavailability for entry CC1CC(=O)NN=C1c1ccc2[nH]c(-c3ccc(Br)s3)nc2c1 (centres undefined) equals < 20%

So for Cc1cc(NC(=O)Cc2ccc3[nH]c(-c4ccc(Br)s4)nc3c2)ccc1N1CCOCC1=O , the logged bioavailability turned out to be < 20%

Form field bioavailability, entry O=C(Cc1ccc2[nH]c(-c3ccc(Cl)s3)nc2c1)NCC1CCN(c2ccncc2)CC1 : < 20%

O=C(Nc1ccc(N2CCOCC2=O)cc1)c1ccc2[nH]c(-c3ccc(Cl)s3)nc2c1 yielded bioavailability of < 20%

bioavailability reading for O=C(Cc1ccc2[nH]c(-c3ccc(Cl)s3)nc2c1)Nc1ccc(N2CCCC2=O)cc1 : < 20%

Could you now look at the following compound, please?
// N=C(N)c1cccc(N[C@H](C(=O)Nc2ccc(N3CCCCC3=O)cc2)c2ccccc2)c1 : bioavailability value = < 20%
